Test system: trachea
Assay: Tracheodilative effect (in vitro), Magnus method, trachea strips contracted with histamine
Details: Cavia porcellus; relaxation of guinea pig trachea strips contracted with 3 x 10^-6 M histamine; maximum relaxation by 10^-4 M isoproterenol = 100%; read-out: pIC50 value Histamine (converted)
Values of IC50 strictly less than 20 µM map to rule met, and values of at least 20 µM map to rule not met.

> print(dat)
                                   compound  assigned.label
1  CCC(C)N1CCc2c(N)nc3c(C#N)cnn3c21 (stereo not drawn)        rule met
2  CCC(C)N1CCc2cnc3c(C#N)cnn3c21 (stereo not drawn)        rule met
3  Cn1c(=O)c2[nH]cnc2n(C)c1=O [Theophylline, theophylline, reference compound]    rule not met
4         N#Cc1cnn2c3c(c(N)nc12)CCN3C1CCCC1        rule met
5        CC(C)(C)N1CCc2c(N)nc3c(C#N)cnn3c21        rule met
6        N#Cc1cnn2c3c(c(N)nc12)CCN3C1CCCCC1        rule met
